# EXPERIMENTAL_SYSTEM: purified catalytic domain of recombinant human TACE (rhTACEc) (Homo sapiens, UniProt P78536, N452Q/S266A)
# Construct: rhTACEc, Residue 215 to 477 with two mutation (S266A and N452Q) and a 6xHis tail; 6xHis (C); made in house; host or cells: baculovirus/Hi5 insect cells
# Sequence (P78536 215-477 S266A/N452Q): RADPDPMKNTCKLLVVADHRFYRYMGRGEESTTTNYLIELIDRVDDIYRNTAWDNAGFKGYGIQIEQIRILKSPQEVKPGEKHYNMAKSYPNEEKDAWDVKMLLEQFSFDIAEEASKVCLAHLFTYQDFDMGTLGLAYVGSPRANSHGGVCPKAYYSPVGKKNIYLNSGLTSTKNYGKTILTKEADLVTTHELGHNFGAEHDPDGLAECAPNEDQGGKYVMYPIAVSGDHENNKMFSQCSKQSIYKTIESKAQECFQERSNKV
# MEASUREMENT_DESCRIPTION: TACE kinetic assay, cleavage of internally quenched fluorescent peptide substrate SPDL-3
# Assay type: biochemical
# CONDITION_SUMMARY: Specific TACE inhibitory activity of representative compounds; read-out: Ki
Record form. Attribute: pKi. Fill in for each entry.
Give bare numbers, as −log10 of the molar value.

Some molecules with known pKi results, for comparison:
COc1ccc2c(c1)C(=O)N(C[C@@]1(c3ccc(Oc4cccc(C(N)=O)c4)cc3)NC(=O)NC1=O)C2 : 9.34
CNC(=O)c1ccc(Oc2ccc([C@]3(CN4Cc5ccc(OC)cc5C4=O)NC(=O)NC3=O)cc2)cc1 : 8.40
COc1ccc2c(c1)C(=O)N(C[C@@]1(c3cc4cc(/C=N/O)ccc4o3)NC(=O)NC1=O)C2 : 9.41
COc1ccc2c(c1)C(=O)N(C[C@@]1(c3ccc(S(C)(=O)=O)cc3)NC(=O)NC1=O)C2 : 9.59
COc1ccc2c(c1)C(=O)N(C[C@@]1(c3ccc(-c4cnc(N)c(C(N)=O)c4)cc3)NC(=O)NC1=O)C2 : 9.64
COc1ccc2c(c1)C(=O)N(C[C@@]1(c3ccc(-c4cccc(C(N)=O)n4)cc3)NC(=O)NC1=O)C2 : 9.18
COc1ccc2c(c1)C(=O)N(C[C@@]1(c3ccc(-c4cc(C(=O)NC5CC5)cc(C)n4)cc3)NC(=O)NC1=O)C2 : 9.82
COc1ccc2c(c1)C(=O)N(C[C@@]1(c3cc4nc(S(C)(=O)=O)ccc4o3)NC(=O)NC1=O)C2 : 8.98
COc1ccc2c(c1)C(=O)N(C[C@@]1(c3cc4cc(C(N)=O)cnc4o3)NC(=O)NC1=O)C2 : 9.15

As a next step, examine the molecule that follows.
q: Specify measured pKi for COc1ccc2c(c1)C(=O)N(C[C@@]1(c3ccc(-c4ncccc4C#N)cc3)NC(=O)NC1=O)C2 .
a: 10.05

----------
# EXPERIMENTAL_SYSTEM: purified catalytic domain of recombinant human TACE (rhTACEc) (Homo sapiens, UniProt P78536, N452Q/S266A)
# Construct: rhTACEc, Residue 215 to 477 with two mutation (S266A and N452Q) and a 6xHis tail; 6xHis (C); made in house; host or cells: baculovirus/Hi5 insect cells
# MEASUREMENT_DESCRIPTION: TACE kinetic assay, cleavage of internally quenched fluorescent peptide substrate SPDL-3
# Format: biochemical
# CONDITION_SUMMARY: TACE inhibition, Table 1; read-out: Ki Rating
pKi: −log10 of the molar value.
Please respond with reported pKi for every item in the list.

COc1ccc2c(c1)C(=O)N(C[C@@]1(c3ccc(-c4cc(C(N)=O)cc(C)n4)cc3)NC(=O)NC1=O)C2 [Compound 67] : > 8.00

The following compounds each have a reported value; give each one's pKi.
1. COc1ccc2c(c1)C(=O)N(CC1(c3ccc(-c4ccccc4CCN)cc3)NC(=O)NC1=O)C2 (stereo not drawn) [Compound 96]
2. COc1ccc2c(c1)C(=O)N(C[C@@]1(c3ccc(Oc4ccc(C(=O)NCCN(C)C)cc4)cc3)NC(=O)NC1=O)C2 [Compound 83]
3. NC(=O)Cc1ccc2c(c1)CN(CC1(c3ccc(F)cc3)NC(=O)NC1=O)C2=O (stereo not drawn) [Compound 37]
4. COc1ccc2c(c1)C(=O)N(C[C@@]1(c3cc4nc(S(C)(=O)=O)ccc4o3)NC(=O)NC1=O)C2 [Compound 50]

a:
1. 7.00 to 8.00
2. > 8.00
3. 7.00 to 8.00
4. > 8.00

Could you tell me pKi for each of these compounds? They are listed below.
1. COc1ccc2c(c1)C(=O)N(C[C@@]1(c3ccc(-c4cncc(C(=O)NC5CC5)c4)cc3)NC(=O)NC1=O)C2 [Compound 56]
2. COc1ccc2c(c1)C(=O)N(C[C@@]1(c3ccc(-c4cnc(N)c(C(=O)NC5CC5)c4)cc3)NC(=O)NC1=O)C2 [Compound 65]

a:
1: > 8.00; 2: > 8.00

// batch mode: one pKi value per listed entry
1. COc1ccc2c(c1)C(=O)N(CC1(CC(=O)N3CCC(Cc4ccccc4)CC3)NC(=O)NC1=O)C2 (stereo not drawn) [Compound 14]
2. COc1ccc2c(c1)C(=O)N(CC1(CC(=O)N3CCC(C#N)(c4ccccc4)CC3)NC(=O)NC1=O)C2 (stereo not drawn) [Compound 16]
3. COC(=O)c1ncccc1C(=O)C[C@]1(CN2Cc3ccc(OC)cc3C2=O)NC(=O)NC1=O [Compound 45]

a:
> 8.00
7.00 to 8.00
7.00 to 8.00
